- tested.target: Gal(b1-3)GalNAc(b1-3)Gal(a1-4)Gal(b1-4)Glc
- method.description: glycan array binding signal (z-score within array); higher = stronger binding
- protocol.conditions: glycan notation: IUPAC condensed, linker removed
This is one part of a sample in which the strongest signals are shown more often than they occur.
assay.metric: glycan array binding signal (z-score)

[ask] Would you mind telling me what glycan array binding signal (z-score) value was observed for Langerin K299A/K313A (Homo sapiens), Q9UJ71 (protein) STLNAQIPELKSDLEKASALNTKIRALQGSLENMSKLLKRQNDILQVVSQGWKYFKGNFYYFSLIPKTWYSAEQFCVSRNSHLTSVTSESEQEFLYKTAGGLIYWIGLTKAGMEGDWSWVDDTPFNKVQSARFWIPGEPNNAGNNEHCGNIAAPSLQAWNDAPCDATFLFICKRPYVPSEP ?
[reply] -0.916

[ask] Would you mind telling me what glycan array binding signal (z-score) value was observed for NPA (Narcissus pseudonarcissus), C0HM45 (protein) DNILYSGETLSPGEFLNNGRYVFIMQEDCNLVLYDVDKPIWATNTGGLDRRCHLSMQSDGNLVVYSPRNNPIWASNTGGENGNYVCVLQKDRNVVIYGTARWATGTNIH ?
[reply] -0.135

[ask] Would you mind telling me what glycan array binding signal (z-score) value was observed for Glycodelin A (Homo sapiens), P09466 (protein) MLCLLLTLGVALVCGVPAMDIPQTKQDLELPKLAGTWHSMAMATNNISLMATLKAPLRVHITSLLPTPEDNLEIVLHRWENNSCVEKKVLGEKTENPKKFKINYTVANEATLLDTDYDNFLFLCLQDTTTPIQSMMCQYLARVLVEDDEIMQGFIRAFRPLPRHLWYLLDLKQMEEPCRF ?
[reply] -0.473
